Test system: A549
Experiment: Cytotoxicity against human A549 cells after 48 hrs by WST8 assay
Type: functional
Conditions: A549, 48 h
We label by threshold. Values of GI50 strictly beneath 5 µM are 1 (yes). Values of 5 µM and up are 0 (no).

[[record]]
compound = "C/C=C(/C)C(=O)O[C@H]1[C@H](OC(=O)/C(C)=C\\C)[C@]2(CO)[C@H](O)[C@H](O)[C@]3(C)C(=CC[C@@H]4[C@@]5(C)CC[C@H](O[C@@H]6O[C@H](C(=O)O)[C@@H](O)[C@H](O[C@@H]7O[C@@H](CO)[C@H](O)[C@H]7O)[C@H]6O[C@@H]6O[C@H](CO)[C@H](O)[C@H](O)[C@H]6O)C(C)(C)[C@@H]5CC[C@]43C)[C@@H]2CC1(C)C"
subject_of_test = "A549"
assigned_label = "1 (yes)"

[[record]]
compound = "C/C=C(/C)C(=O)O[C@H]1[C@H](OC(=O)C(C)CC)[C@]2(CO)[C@H](O)[C@H](O)[C@]3(C)C(=CC[C@@H]4[C@@]5(C)CC[C@H](O)C(C)(C)[C@@H]5CC[C@]43C)[C@@H]2CC1(C)C (some centres not stated)"
subject_of_test = "A549"
assigned_label = "0 (no)"

[[record]]
compound = "C/C=C(/CC)C(=O)O[C@H]1[C@H](OC(C)=O)[C@]2(CO)[C@H](O)[C@H](O)[C@]3(C)C(=CC[C@@H]4[C@@]5(C)CC[C@H](O[C@@H]6O[C@H](C(=O)O)[C@@H](O)[C@H](O[C@@H]7OC[C@H](O)[C@H](O)[C@H]7O)[C@H]6O[C@@H]6O[C@H](CO)[C@@H](O)[C@H](O)[C@H]6O)C(C)(C)[C@@H]5CC[C@]43C)[C@@H]2CC1(C)C [SANICULASAPONIN III]"
subject_of_test = "A549"
assigned_label = "1 (yes)"

[[record]]
compound = "C/C=C(/C)C(=O)O[C@H]1[C@H](OC(=O)/C(C)=C\\C)[C@]2(CO)[C@H](O)C[C@]3(C)C(=CC[C@@H]4[C@@]5(C)CC[C@H](O)[C@](C)(CO)[C@@H]5CC[C@]43C)[C@@H]2CC1(C)C"
subject_of_test = "A549"
assigned_label = "1 (yes)"

[[record]]
compound = "C/C=C(/C)C(=O)O[C@H]1[C@H](O)[C@]2(CO)[C@H](O)C[C@]3(C)C(=CC[C@@H]4[C@@]5(C)CC[C@H](O[C@@H]6O[C@H](C(=O)O)[C@@H](O)[C@H](O[C@@H]7O[C@@H](CO)[C@H](O)[C@H]7O)[C@H]6O[C@@H]6O[C@H](CO)[C@H](O)[C@H](O)[C@H]6O)C(C)(C)[C@@H]5CC[C@]43C)[C@@H]2CC1(C)C [AESCULIOSIDE IIC]"
subject_of_test = "A549"
assigned_label = "0 (no)"

[[record]]
compound = "C/C=C(/C)C(=O)O[C@H]1[C@H](OC(=O)/C(C)=C/C)C(C)(C)C[C@H]2C3=CC[C@@H]4[C@@]5(C)CC[C@H](O[C@@H]6O[C@H](C(=O)O)[C@@H](O)[C@H](O[C@@H]7O[C@@H](CO)[C@H](O)[C@H]7O)[C@H]6O[C@@H]6O[C@H](CO)[C@@H](O)[C@H](O)[C@H]6O)[C@](C)(CO)[C@@H]5CC[C@@]4(C)[C@]3(C)[C@@H](O)[C@@H](O)[C@]21CO [AESCULIOSIDE IIIE]"
subject_of_test = "A549"
assigned_label = "0 (no)"

[[record]]
compound = "C/C=C(/C)C(=O)O[C@H]1[C@H](OC(C)=O)[C@]2(CO)[C@H](O)C[C@]3(C)C(=CC[C@@H]4[C@@]5(C)CC[C@H](O[C@@H]6O[C@H](C(=O)O)[C@@H](O)[C@H](O[C@@H]7O[C@@H](CO)[C@H](O)[C@H]7O)[C@H]6O[C@@H]6O[C@H](CO)[C@H](O)[C@H](O)[C@H]6O)C(C)(C)[C@@H]5CC[C@]43C)[C@@H]2CC1(C)C [AESCULIOSIDE IIK]"
subject_of_test = "A549"
assigned_label = "0 (no)"

[[record]]
compound = "C/C=C(\\C)C(=O)O[C@H]1[C@H](OC(C)=O)[C@]2(CO)[C@H](O)C[C@]3(C)C(=CC[C@@H]4[C@@]5(C)CC[C@H](O[C@@H]6O[C@H](C(=O)O)[C@@H](O)[C@H](O[C@@H]7O[C@@H](CO)[C@H](O)[C@H]7O)[C@H]6O[C@@H]6O[C@H](CO)[C@H](O)[C@H](O)[C@H]6O)C(C)(C)[C@@H]5CC[C@]43C)[C@@H]2CC1(C)C [AESCULIOSIDE IIJ]"
subject_of_test = "A549"
assigned_label = "0 (no)"

[[record]]
compound = "C/C=C(/C)C(=O)O[C@H]1[C@H](OC(=O)C(C)CC)[C@]2(CO)[C@H](O)[C@H](O)[C@]3(C)C(=CC[C@@H]4[C@@]5(C)CC[C@H](O[C@@H]6O[C@H](C(=O)O)[C@@H](O)[C@H](O[C@@H]7O[C@@H](CO)[C@H](O)[C@H]7O)[C@H]6O[C@@H]6O[C@H](CO)[C@H](O)[C@H](O)[C@H]6O)C(C)(C)[C@@H]5CC[C@]43C)[C@@H]2CC1(C)C (some centres not stated) [AESCULIOSIDE IVA]"
subject_of_test = "A549"
assigned_label = "0 (no)"

[[record]]
compound = "C/C=C(\\C)C(=O)O[C@H]1[C@H](OC(=O)C(C)CC)[C@]2(CO)[C@H](O)[C@H](O)[C@]3(C)C(=CC[C@@H]4[C@@]5(C)CC[C@H](O[C@@H]6O[C@H](C(=O)O)[C@@H](O)[C@H](O[C@@H]7O[C@@H](CO)[C@H](O)[C@H]7O)[C@H]6O[C@@H]6O[C@H](CO)[C@H](O)[C@H](O)[C@H]6O)C(C)(C)[C@@H]5CC[C@]43C)[C@@H]2CC1(C)C (some centres not stated) [AESCULIOSIDE IIIC]"
subject_of_test = "A549"
assigned_label = "0 (no)"

[[record]]
compound = "C/C=C(/C)C(=O)O[C@H]1[C@H](OC(=O)C(C)C)[C@]2(CO)[C@H](O)C[C@]3(C)C(=CC[C@@H]4[C@@]5(C)CC[C@H](O)[C@](C)(CO)[C@@H]5CC[C@]43C)[C@@H]2CC1(C)C"
subject_of_test = "A549"
assigned_label = "1 (yes)"

[[record]]
compound = "C/C=C(/C)C(=O)O[C@H]1[C@H](OC(=O)C(C)CC)[C@]2(CO)[C@H](O)C[C@]3(C)C(=CC[C@@H]4[C@@]5(C)CC[C@H](O)C(C)(C)[C@@H]5CC[C@]43C)[C@@H]2CC1(C)C (some centres not stated)"
subject_of_test = "A549"
assigned_label = "1 (yes)"

